# Tested on: HLA-B*45:01
# Test name: IEDB peptide-MHC binding, purified MHC/competitive/radioactivity; filed as Kd, often an IC50 or EC50 that approximates it; bounds were set here for any values at or beyond the usual limits of such assays
# Test parameters: source organism: Lymphocytic choriomeningitis virus (strain WE)
Readout type: Kd

Given the entry `REPTDQKQF` , report its measured Kd.
≥ 77.7 µM

###

# Tested on: HLA-A*03:01
# Test name: IEDB peptide-MHC binding, purified MHC/competitive/radioactivity; filed as Kd, often an IC50 or EC50 that approximates it; bounds were set here for any values at or beyond the usual limits of such assays
# Test parameters: source organism: SARS coronavirus ZJ0301
Readout type: Kd (nM)
Enter your answer as a number in nM; do not include the unit.

Param readout= Kd; system= HLA-A*03:01; entry= `LLNSNALLR` ; returns value.
14.7

###

# Tested on: HLA-B*08:01
# Test name: IEDB peptide-MHC binding, purified MHC/direct/fluorescence; filed as Kd, often an IC50 or EC50 that approximates it; bounds were set here for any values at or beyond the usual limits of such assays
# Test parameters: source organism: Influenza A virus
Readout type: Kd

Given the entry `DWSGYSGSF` , report its measured Kd.
≥ 20 µM

###

# Tested on: HLA-B*44:02
# Test name: IEDB peptide-MHC binding, purified MHC/direct/fluorescence; filed as Kd, often an IC50 or EC50 that approximates it; bounds were set here for any values at or beyond the usual limits of such assays
# Test parameters: source organism: Yersinia pestis
pKd: −log10 of the molar value.
Readout type: pKd

Given the entry `TMPELAWAV` , report its measured pKd.
≤ 4.70

###

# Tested on: HLA-B*44:02
# Test name: IEDB peptide-MHC binding, purified MHC/competitive/radioactivity; filed as Kd, often an IC50 or EC50 that approximates it; bounds were set here for any values at or beyond the usual limits of such assays
# Test parameters: source organism: Dengue virus 3 Martinique/1243/1999
Readout type: log10(Kd) (log10 of the value in nM)
The figures below represent log10 of Kd, where Kd is stated in nM.

- Biosequence: "YTALFSGVSW"
  Readout type: "log10(Kd)"
  Reported measurement: 3.32
- Biosequence: "GEIGAIALDF"
  Readout type: "log10(Kd)"
  Reported measurement: 1.13
- Biosequence: "NEWITDFAG"
  Readout type: "log10(Kd)"
  Reported measurement: 3.82
- Biosequence: "HEMYWISNG"
  Readout type: "log10(Kd)"
  Reported measurement: 2.69

Given the entry `RENLLLGVGL` , report its measured log10(Kd).
1.33

Given the entry `GDNALKINW` , report its measured log10(Kd).
2.18

###

# Tested on: HLA-A*31:01
# Test name: IEDB peptide-MHC binding, purified MHC/competitive/radioactivity; filed as Kd, often an IC50 or EC50 that approximates it; bounds were set here for any values at or beyond the usual limits of such assays
# Test parameters: source organism: Mammarenavirus brazilense
Readout type: Kd

- Biosequence: "DFTLFIKTGH"
  Kd: "4.54 µM"
- Biosequence: "NYILCYRKPH"
  Kd: "11.6 µM"

// next entry
Param readout= Kd; system= HLA-A*31:01; entry= `QAEPSLYGRH` ; returns value.
≥ 20 µM

###

# Tested on: HLA-B*83:01
# Test name: IEDB peptide-MHC binding, purified MHC/competitive/fluorescence; filed as Kd, often an IC50 or EC50 that approximates it; bounds were set here for any values at or beyond the usual limits of such assays
# Test parameters: source organism: Burkholderia mallei SAVP1
Readout type: Kd

Param readout= Kd; system= HLA-B*83:01; entry= `MVFGRFSFA` ; returns value.
≥ 5 µM
